molecular target: human mAChR M1 (Homo sapiens, UniProt P11229); assay: mAChR M1 cell-based functional assay: calcium mobilization, positive allosteric modulator mode (increase in EC20 acetylcholine response); details: Table 2; human M1; read-out: Human M1 EC50
Sequence (P11229 whole entry): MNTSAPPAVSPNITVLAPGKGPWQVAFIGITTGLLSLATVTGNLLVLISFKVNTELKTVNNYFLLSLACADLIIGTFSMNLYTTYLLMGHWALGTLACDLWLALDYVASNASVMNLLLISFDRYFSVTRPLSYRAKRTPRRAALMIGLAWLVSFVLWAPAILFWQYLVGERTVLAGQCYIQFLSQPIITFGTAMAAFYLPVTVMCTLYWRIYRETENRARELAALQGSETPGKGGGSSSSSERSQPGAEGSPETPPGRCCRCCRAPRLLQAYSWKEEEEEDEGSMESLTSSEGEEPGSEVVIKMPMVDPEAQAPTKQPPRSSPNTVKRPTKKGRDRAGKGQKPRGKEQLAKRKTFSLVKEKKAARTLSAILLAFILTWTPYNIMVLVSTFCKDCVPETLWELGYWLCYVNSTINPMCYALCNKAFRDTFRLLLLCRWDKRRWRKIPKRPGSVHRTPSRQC
readoutKind: EC50 (nM)

In [3]: df
Out[3]:
                                   compound  observedresult
0  Cn1ncc2nc(C(=O)N[C@H]3CCOC[C@@H]3O)cc(Cc3ccc(-n4cccn4)cc3)c21 [Compound 499]             267
1  Cc1ncc(Cc2cc(C(=O)NC3CCCCC3)nc3ccsc23)s1 [Compound 134]            3210
2  Cn1cc(-c2ccc(Cc3cc(C(=O)N[C@H]4CC[C@@H]4O)nc4ccsc34)cc2)nn1 [Compound 148]            33.1

[I] Cn1ccc(-c2ccc(Cc3cc(C(=O)NCC4CCN4)nc4ccsc34)cn2)n1 (centres unmarked) [Compound 421]
[II] O=C(N[C@@H]1CCCCC[C@H]1O)c1cc(Cc2ccc(-n3cccn3)cc2)c2sccc2n1 [Compound 77]
[III] Cc1ccc(Cc2cc(C(=O)NC3C(=O)Nc4ccccc43)nc3ccsc23)cn1 (centres unmarked) [Compound 68]
Request: Form: Sort by [EC50] Order [ ascending ] # the answer lists labels in the order requested
Result: II, I, III
(II: 136 nM, I: 422 nM, III: 9700 nM)

FYI, the data here is from patent US11111251B2.
